# Tested on: P. falciparum 3D7 (chloroquine-sensitive strain)
# ASSAY PROTOCOL: In vitro anti-plasmodial image-based assay, P. falciparum 3D7
# Format: cell-based, Plasmodium falciparum
# CONDITION CONTEXT: Plasmodium falciparum, 3D7; controls; 72 h incubation; read-out: Pf 3D7 IC50 ± SD
pIC50: −log10 of the molar value.
Entries and their measured pIC50 follow.

| COMPOUND | pIC50 |
| --- | --- |
| CCc1nc(N)nc(N)c1-c1ccc(Cl)cc1 [Pyrimethamine, reference compound] | 7.82 |
| COc1ccc(C[C@H](N)C(=O)N[C@H]2[C@@H](O)[C@H](n3cnc4c(N(C)C)ncnc43)O[C@@H]2CO)cc1 [Puromycin, reference compound] | 7.10 |
